- System: MDA-MB-231 breast
- protocol_details: NCI tumour cell line growth inhibition, 48 h
measurement_name: GI50

| compound | measured_target | observed_result |
| --- | --- | --- |
| CN(C)c1ccc(Nc2ncnc3ccccc23)cc1 | MDA-MB-231 breast | > 100 µM |
| CN1CCCC1c1cccnc1.O=C(O)c1ccccc1O.O=C([O-])c1ccccc1[OH2+].O=C([O-])c1ccccc1[OH2+].O=C([O-])c1ccccc1[OH2+].[Cu+2] (stereo not given) | MDA-MB-231 breast | > 100 µM |
| COc1cc(/C=C/C(=O)Nc2ccc3c(c2)/C(=C\c2cccn2C)C(=O)N3)cc(OC)c1OC | MDA-MB-231 breast | 2.3 µM |
| O=[N+]([O-])c1ccc(C(Br)c2ccc([N+](=O)[O-])cc2)cc1 | MDA-MB-231 breast | 9.54 µM |
| Oc1ccc(Nc2nc3ccccc3c3occc23)cc1 | MDA-MB-231 breast | 5.34 µM |

###

# TGI listing for each entry below
- Test system: LOX IMVI melanoma
- protocol_details: NCI tumour cell line growth inhibition, 48 h
measurement_name: TGI

| compound | measured_target | measurement_name | observed_result |
| --- | --- | --- | --- |
| COc1ccc(-c2cn3c(nc4ccccc43)c(/C=C/c3cccs3)n2)cc1 | LOX IMVI melanoma | TGI | > 100 µM |
| CC1(F)C=CC(=O)C=C1 | LOX IMVI melanoma | TGI | 31.4 µM |
| CC1=C(C(=O)OCc2ccncc2)C(C2=C(C)SCCS2)C(C(=O)OCc2ccncc2)=C(C)N1 | LOX IMVI melanoma | TGI | 35.8 µM |
| N#Cc1c(-c2ccc([N+](=O)[O-])cc2)cc(-c2ccc(Nc3ccnc4cc(C(F)(F)F)ccc34)cc2)[nH]c1=O | LOX IMVI melanoma | TGI | > 100 µM |
| O=C(Nc1ccccn1)/C(=C\C(=O)c1ccc(Cl)cc1)Nc1ccccc1 | LOX IMVI melanoma | TGI | > 10 µM |
| CN(C)CCN=C1c2ccccc2-c2c(=O)n(CCN(C)C)c(O)c3cccc1c23 | LOX IMVI melanoma | TGI | 0.185 µM |
| CCCOP1(=O)C=C(O)C(Cl)=C(C)C1 (stereo not given) | LOX IMVI melanoma | TGI | > 100 µM |
| CN(/N=C(\C(=O)O)c1ccccc1)C1=NCCCCN1 | LOX IMVI melanoma | TGI | > 100 µM |
| CCCCCOc1ccc(C=Nc2ccc(-c3ccc(N=Cc4ccc(OCCCCC)cc4)c(OC)c3)cc2OC)cc1 | LOX IMVI melanoma | TGI | > 100 µM |
| O=C(/C=C/c1cc2ccccc2[nH]c1=O)c1ccc(Cl)cc1 | LOX IMVI melanoma | TGI | > 60.5 µM |

###

- Test system: SN12C renal
- protocol_details: NCI tumour cell line growth inhibition, 48 h
# TGI listing for each entry below

| compound | measured_target | TGI |
| --- | --- | --- |
| CCOC(=O)C(C(CC(=O)OC)NC(=O)OCc1ccccc1)C1(C)OCCO1 (stereo unspecified) | SN12C renal | > 100 µM |
| COC(=O)C1=C(OC(=O)c2ccccc2)C(C(=O)OC)[C@]2(O)[C@@H](C(=O)OC)C1CC(c1ccccc1OC)[C@@H]2C(=O)OC (stereo partly specified) | SN12C renal | 51.5 µM |
| COc1ccc(S(=O)Cc2cc(OC)c(OC)c(OC)c2)cc1 (stereo unspecified) | SN12C renal | > 100 µM |
| N#C/C(=C\c1cn(Cc2ccccc2)c2ccccc12)C(=O)Nc1ncc(Cc2ccccc2Cl)s1 | SN12C renal | 3.88 µM |
| O=C1NN=C2C=C(c3ccc(Cl)cc3)CC(c3cccc(Br)c3)C12 (stereo unspecified) | SN12C renal | > 100 µM |
| O=c1c2c([nH]c3ccccc13)CCCC2 | SN12C renal | > 100 µM |

All figures here come from PubChem BioAssay (NCI).
